Target: T1, human tissue factor pathway inhibitor (TFPI) (human, UniProt P10646 29-304, limits assumed)
T1 construct: bought; also called hTFPI; human TFPI
T1 sequence (looked up): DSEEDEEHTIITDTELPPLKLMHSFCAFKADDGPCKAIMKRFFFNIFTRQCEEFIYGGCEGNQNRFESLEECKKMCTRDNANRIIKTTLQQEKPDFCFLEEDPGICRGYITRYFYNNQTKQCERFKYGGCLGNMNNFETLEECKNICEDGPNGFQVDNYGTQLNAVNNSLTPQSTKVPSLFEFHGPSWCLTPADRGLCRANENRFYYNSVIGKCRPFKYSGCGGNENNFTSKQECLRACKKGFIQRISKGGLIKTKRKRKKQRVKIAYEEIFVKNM
Experiment: competitive ELISA
The entries below are paired with their reported variant/HC_K99L.
Report only the number, with the unit ratio understood.

A selection of reference data follows.
Input 2A8 HC S31V+I51D+S55R+K99L/LC Y48F+N52G+D91L+V96W (Fab, V domains shown) VH: QVQLVESGGGLVQPGGSLRLSCAASGFTFRVYGMSWVRQAPGKGLEWVSSDRGSRSSTYYADSVKGRFTISRDNSKNTLYLQMNSLRAEDTAVYYCARLYRYWFDYWGQGTLVTVSS VL: DIELTQPPSVSVAPGQTARISCSGDNLRNYYAHWYQQKPGQAPVVVIFYDNGRPSGIPERFSGSNSGNTATLTISGTQAEDEADYYCQSWLDGVPWFGGGTKLTVLG , output reported variant/HC_K99L.
0.4

Input 2A8 HC S31V+S35L+I51E+S54F+K99V/LC N51V+D91K (Fab, V domains shown) VH: QVQLVESGGGLVQPGGSLRLSCAASGFTFRVYGMLWVRQAPGKGLEWVSSERGFSSSTYYADSVKGRFTISRDNSKNTLYLQMNSLRAEDTAVYYCARVYRYWFDYWGQGTLVTVSS VL: DIELTQPPSVSVAPGQTARISCSGDNLRNYYAHWYQQKPGQAPVVVIYYDVNRPSGIPERFSGSNSGNTATLTISGTQAEDEADYYCQSWKDGVPVFGGGTKLTVLG , output reported variant/HC_K99L.
4.9

Attention now turns to another entry.
Input 2A8 HC S35D+S55R+K99L/LC I2Y+Y48F+N51V+D91W (Fab, V domains shown) VH: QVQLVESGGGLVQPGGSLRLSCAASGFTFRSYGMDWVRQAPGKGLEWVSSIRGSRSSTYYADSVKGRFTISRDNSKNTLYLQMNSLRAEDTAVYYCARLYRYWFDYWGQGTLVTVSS VL: DYELTQPPSVSVAPGQTARISCSGDNLRNYYAHWYQQKPGQAPVVVIFYDVNRPSGIPERFSGSNSGNTATLTISGTQAEDEADYYCQSWWDGVPVFGGGTKLTVLG , output reported variant/HC_K99L.
18.7

Sourced from patent USRE47150
